ASSAY TARGET: CDK11 Wild-type (CDK11B residues 72–380) (Homo sapiens, UniProt P21127)
Sequence (P21127 428-736): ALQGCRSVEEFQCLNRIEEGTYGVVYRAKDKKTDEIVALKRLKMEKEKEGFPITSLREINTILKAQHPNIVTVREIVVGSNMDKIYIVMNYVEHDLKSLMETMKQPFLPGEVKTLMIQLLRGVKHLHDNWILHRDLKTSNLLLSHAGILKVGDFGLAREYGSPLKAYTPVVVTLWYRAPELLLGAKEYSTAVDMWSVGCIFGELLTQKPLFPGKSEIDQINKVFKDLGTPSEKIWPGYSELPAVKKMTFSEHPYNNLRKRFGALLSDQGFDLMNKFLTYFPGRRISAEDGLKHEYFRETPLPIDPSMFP

COMPOUND | UNIT INFO | Kd
Cc1cc(O)c(-c2ccc(C(C)CN(C)C)cc2)c2c1[nH]c(=O)c1sccc12 (stereo not shown) | nM | 65.4

---

ASSAY TARGET: CDK2 Wild-type (Homo sapiens, UniProt P24941)
MEASUREMENT DESCRIPTION: ITC binding of OTS964 to CDK2 wild-type
METRIC: Kd (µM)

MOLECULE | OBSERVED
Cc1cc(O)c(-c2ccc(C(C)CN(C)C)cc2)c2c1[nH]c(=O)c1sccc12 (stereo not shown) | 16.3
